# EXPERIMENT NOTES: Dynamic solubility in water, SGF, FaSSIF and FeSSIF
# Format: physicochemical
# PROTOCOL CONDITIONS: 37 °C, pH 5, fessif, thermodynamic from solid
OUTCOME MEASURE: solubility at 24 h (µg/mL)
Please respond with the number in µg/mL and leave the unit unwritten.

Quick one: solubility at 24 h for O=C(Nc1ccc(F)cc1)C1(C(=O)Nc2ccc(Oc3ccnc4cc(OCCCN5CCOCC5)c5c(c34)OCCO5)c(F)c2)CC1 [Free state] ?
760

====

# EXPERIMENT NOTES: Dynamic solubility in water, SGF, FaSSIF and FeSSIF
# Type: physicochemical
# PROTOCOL CONDITIONS: 37 °C, pH 5, fessif, thermodynamic from solid
OUTCOME MEASURE: solubility at 2 h (µg/mL)
Express the result in µg/mL but write the number alone.

Reported solubility at 2 h, compound O=C(Nc1ccc(F)cc1)C1(C(=O)Nc2ccc(Oc3ccnc4cc(OCCCN5CCOCC5)c5c(c34)OCCO5)c(F)c2)CC1 [Free state] : ____
710

====

# EXPERIMENT NOTES: Dynamic solubility in water, SGF, FaSSIF and FeSSIF
# Format: physicochemical
# PROTOCOL CONDITIONS: 37 °C, pH 1.8, simulated gastric fluid, thermodynamic from solid
OUTCOME MEASURE: solubility at 4 h (µg/mL)
Write the answer as a number in µg/mL, unit excluded.

Look up solubility at 4 h: O=C(Nc1ccc(F)cc1)C1(C(=O)Nc2ccc(Oc3ccnc4cc(OCCCN5CCOCC5)c5c(c34)OCCO5)c(F)c2)CC1 [Free state]
5700

====

# Tested on: human lung cancer cells EBC-1
# EXPERIMENT NOTES: Efficacy in nude mouse tumor-bearing model of human lung cancer cells EBC-1
# Assay type: in vivo, Balb/c nude mouse
# PROTOCOL CONDITIONS: 7.5 mg/kg oral once a day, day 21
Parameter: T/C (relative tumor proliferation rate). Scope: all listed entries.
Answer with a number only, understood to be in %.

Known results for compounds:
O=C(Nc1ccc(F)cc1)C1(C(=O)Nc2ccc(Oc3ccnc4cc(OCCCN5CCOCC5)c5c(c34)OCCO5)c(F)c2)CC1 [Example 2]    33.1
O=C(Nc1ccc(F)cc1)C1(C(=O)Nc2ccc(Oc3ccnc4cc(OCCCN5CCOCC5)c5c(c34)OCCO5)c(F)c2)CC1 [Example 1]    43.73
O=C(Nc1ccc(F)cc1)C1(C(=O)Nc2ccc(Oc3ccnc4cc(OCCCN5CCOCC5)c5c(c34)OCCO5)c(F)c2)CC1 [Example 5]    58.8

Okay, next one:
Request body: readout T/C (relative tumor proliferation rate), system human lung cancer cells EBC-1, query O=C(Nc1ccc(F)cc1)C1(C(=O)Nc2ccc(Oc3ccnc4cc(OCCCN5CCOCC5)c5c(c34)OCCO5)c(F)c2)CC1 [Free state] . Return the value.
70.68

====

# EXPERIMENT NOTES: Dynamic solubility in water, SGF, FaSSIF and FeSSIF
# Format: physicochemical
# PROTOCOL CONDITIONS: 37 °C, pH 6.5, fassif, thermodynamic from solid
OUTCOME MEASURE: solubility at 2 h (µg/mL)
Note: unit µg/mL is implicit; provide only the numeric part.

Which solubility at 2 h reading was recorded for the compound O=C(Nc1ccc(F)cc1)C1(C(=O)Nc2ccc(Oc3ccnc4cc(OCCCN5CCOCC5)c5c(c34)OCCO5)c(F)c2)CC1 [Free state] ?
1.9
